MIC reference
System: Enterococcus faecalis
Test: In vitro minimum inhibitory concentration against Enterococcus faecalis 29212
Format: functional
reported.metric: MIC (mg/L)

# chemical.structure, qualifier.symbol, observed.measurement
rows = [
    ("NC[C@@H]1C[C@H](O)[C@@H](N)[C@H](O[C@H]2[C@H](O)[C@@H](OC[C@@H](O)CNCCCCNC[C@@H](O)CO[C@@H]3[C@@H](O)[C@H](O[C@H]4O[C@H](CN)[C@@H](O)C[C@H]4N)[C@@H](N)C[C@H]3N)[C@H](N)C[C@@H]2N)O1", "=", 32),
    ("NC[C@H]1O[C@H](O[C@H]2[C@H](OC[C@H](O)CN3CCN(C[C@@H](O)CO[C@@H]4[C@@H](O)[C@H](N)C[C@H](N)[C@H]4O[C@H]4O[C@H](CN)[C@@H](O)[C@H](O)[C@H]4N)CC3)[C@@H](O)[C@H](N)C[C@@H]2N)[C@H](N)[C@@H](O)[C@@H]1O", ">", 50),
    ("NC[C@@H]1C[C@H](O)[C@@H](N)[C@H](O[C@H]2[C@H](O)[C@@H](OC[C@@H](O)CN[C@H]3CC[C@H](NC[C@@H](O)CO[C@@H]4[C@@H](O)[C@H](O[C@H]5O[C@H](CN)[C@@H](O)C[C@H]5N)[C@@H](N)C[C@H]4N)CC3)[C@H](N)C[C@@H]2N)O1", "=", 32),
    ("CN(CCCCCCN(C)C[C@@H](O)CO[C@@H]1[C@@H](O)[C@H](N)C[C@H](N)[C@H]1O[C@H]1O[C@H](CN)[C@@H](O)[C@H](O)[C@H]1N)C[C@@H](O)CO[C@@H]1[C@@H](O)[C@H](N)C[C@H](N)[C@H]1O[C@H]1O[C@H](CN)[C@@H](O)[C@H](O)[C@H]1N", ">", 50),
    ("NC[C@H]1O[C@H](O[C@H]2[C@H](OC[C@@H](O)CNCCCCNC[C@@H](O)CO[C@@H]3[C@@H](O)[C@H](N)C[C@H](N)[C@H]3O[C@H]3O[C@H](CN)[C@@H](O)C[C@H]3N)[C@@H](O)[C@H](N)C[C@@H]2N)[C@H](N)[C@@H](O)[C@@H]1O", "=", 32),
    ("NC[C@H]1O[C@H](O[C@H]2[C@H](OC[C@H](O)CNCCCCNC[C@@H](O)CO[C@@H]3[C@@H](O)[C@H](N)C[C@H](N)[C@H]3O[C@H]3O[C@H](CN)[C@@H](O)[C@H](O)[C@H]3N)[C@@H](O)[C@H](N)C[C@@H]2N)[C@H](N)[C@@H](O)[C@@H]1O", ">", 50),
    ("CCN(CCCN(CC)C[C@@H](O)CO[C@@H]1[C@@H](O)[C@H](N)C[C@H](N)[C@H]1O[C@H]1O[C@H](CN)[C@@H](O)[C@H](O)[C@H]1N)C[C@@H](O)CO[C@@H]1[C@@H](O)[C@H](N)C[C@H](N)[C@H]1O[C@H]1O[C@H](CN)[C@@H](O)[C@H](O)[C@H]1N", ">", 50),
]
